- assay.name: Area under the curve determination of plasma levels in rats (rrAUC)
- Type: in vivo
- protocol.conditions: rat, oral 10 mg/kg, plasma 0.5-6 h; read-out: RR AUC (nM · h), rapid rat AUC (rrAUC)
property.name: AUC (µM·h)

Answered examples (3):
COc1ccc2c(c1)C(=O)N(C[C@@]1(C#Cc3ccc(C4(C)NC(=O)NC4=S)cc3)NC(=O)NC1=O)C2 (stereo partly drawn)
0.438
COc1ccc2c(c1)C(=O)N(C[C@@]1(C#Cc3ccc(-c4cnn(C)c4)nc3)NC(=O)NC1=O)C2
0.924
COc1ccc2c(c1)C(=O)N(C[C@@]1(C#Cc3ccc(F)c(C(O)(O)C(F)(F)F)c3)NC(=O)NC1=O)C2
0.171

P. COc1ccc2c(c1)C(=O)N(C[C@@]1(C#Cc3ccc4c(c3)CC[C@]43NC(=O)NC3=O)NC(=O)NC1=O)C2
Q. COc1ccc2c(c1F)C(=O)N(C[C@@]1(C#Cc3ccc(C)nc3)NC(=O)NC1=O)C2
Exam item: Min AUC? P | Q Returns: label corresponding to the selected item.
Marked response: P
(P: 0.53 µM·h, Q: 16.4 µM·h)

====

- Test system: TNF-α production in LPS-stimulated human whole blood
- assay.name: Inhibition of TNF-α production from human whole blood (hWBA)
- Type: cell-based
- protocol.conditions: Homo sapiens, read-out: hWBA (nM)
property.name: IC50 (nM)
The reply should contain only the number, in nM.

Measured IC50, COc1ccc2c(c1F)C(=O)N(C[C@@]1(C#Cc3ccc(C4(C#N)CCN(C)CC4)cc3)NC(=O)NC1=O)C2 : 669

====

- assay.name: Area under the curve determination of plasma levels in rats (rrAUC)
- Type: in vivo
- protocol.conditions: rat, oral 10 mg/kg, plasma 0.5-6 h post-dosing; read-out: RR AUC
property.name: AUC (µM·h)

Answered examples (3):
COc1ccc2c(c1)C(=O)N(C[C@@]1(C#Cc3ccc(-c4noc(C(C)C)n4)cc3)NC(=O)NC1=O)C2 [Compound 1505]
0.243
COc1ccc2c(c1)C(=O)N(C[C@@]1(C#Cc3ccc(C(=NO)c4ccc(F)cc4)cc3)NC(=O)NC1=O)C2 [Compound 2245]
1.07
COc1ccc2c(c1)C(=O)N(C[C@@]1(C#Cc3ccc(N4C(=O)CCC4C(=O)NC4CC4)cc3)NC(=O)NC1=O)C2 (stereo partly shown) [Compound 1902]
0.025

a. COc1ccc2c(c1)C(=O)N(C[C@@]1(C#Cc3nc(N4C[C@H](O)CC4=O)ccc3OC)NC(=O)NC1=O)C2 [Compound 1503]
b. COc1ccc2c(c1)C(=O)N(C[C@@]1(C#Cc3ccc4c(N)nn(C)c4c3)NC(=O)NC1=O)C2 [Compound 718]
c. COc1ccc2c(c1)C(=O)N(C[C@@]1(C#Cc3ccc4c(c3)c(N)nn4C)NC(=O)NC1=O)C2 [Compound 746]
d. COc1ccc2c(c1Cl)C(=O)N(CC1(C#Cc3cccnc3)NC(=O)NC1=O)C2 (stereo not shown) [Compound 2247]
Exam item: Order the entries by their reported AUC, beginning at the minimum. Reply: labels, ordered per the request.
Marked response: b, a, c, d

====

- assay.name: Area under the curve determination of plasma levels in rats (rrAUC)
- Format: in vivo
- protocol.conditions: rat, oral 10 mg/kg, plasma 0.5-6 h post-dosing; read-out: RR AUC
property.name: AUC (µM·h)

Answered examples (5):
COc1ccc2c(c1)C(=O)N(C[C@@]1(C#Cc3ccc4c(C)n[nH]c4c3)NC(=O)NC1=O)C2
7.59
COc1ccc2c(c1)C(=O)N(C[C@@]1(C#Cc3ccc4c(c3)CN(C)C(=O)N4)NC(=O)NC1=O)C2
0.012
COc1ccc2c(c1F)C(=O)N(C[C@@]1(C#Cc3ccc(C4(C)NC(=O)NC4=O)c(F)c3)NC(=O)NC1=O)C2 (stereo partly shown)
5.64
COc1ccc2c(c1)C(=O)N(C[C@@]1(C#Cc3ccc(-c4cc[nH]n4)nc3)NC(=O)NC1=O)C2
0.23
CCN1CCN(Cc2ccc(C#C[C@]3(CN4Cc5ccc(OC)c(F)c5C4=O)NC(=O)NC3=O)cc2)CC1
0.034

A. COc1ccc2c(c1F)C(=O)N(C[C@@]1(C#Cc3cncc(F)c3)NC(=O)NC1=O)C2
B. COc1ccc2c(c1)C(=O)N(C[C@@]1(C#Cc3cc(Cl)cnc3N)NC(=O)NC1=O)C2
Exam item: Min AUC? A | B Returns: label corresponding to the selected item.
Marked response: A
(A: 1.77 µM·h, B: 4.04 µM·h)
